# System: CW-2 cells harboring HER2 exon 19 mutation L755S
# test.summary: CW-2 colorectal cell viability
# Type: cell-based, human
# settings: Homo sapiens, CW-2, 72 h, read-out: average IC50, CW-2
measurement.type: IC50 (nM)
Field format: number, assumed nM, no unit text.

IC50 lookup needed for CCOc1cc2ncc(C#N)c(Nc3ccc(OCc4ccccn4)c(Cl)c3)c2cc1NC(=O)/C=C/CN(C)C [Neratinib] , thanks.
68.8

###

# tested.target: Ba/F3 cell lines expressing EGFR exon 20 insertion mutations (Homo sapiens, UniProt P00533, cells depend on it, form not given)
# Sequence (P00533 25-1210 limits assumed, stated change not applied): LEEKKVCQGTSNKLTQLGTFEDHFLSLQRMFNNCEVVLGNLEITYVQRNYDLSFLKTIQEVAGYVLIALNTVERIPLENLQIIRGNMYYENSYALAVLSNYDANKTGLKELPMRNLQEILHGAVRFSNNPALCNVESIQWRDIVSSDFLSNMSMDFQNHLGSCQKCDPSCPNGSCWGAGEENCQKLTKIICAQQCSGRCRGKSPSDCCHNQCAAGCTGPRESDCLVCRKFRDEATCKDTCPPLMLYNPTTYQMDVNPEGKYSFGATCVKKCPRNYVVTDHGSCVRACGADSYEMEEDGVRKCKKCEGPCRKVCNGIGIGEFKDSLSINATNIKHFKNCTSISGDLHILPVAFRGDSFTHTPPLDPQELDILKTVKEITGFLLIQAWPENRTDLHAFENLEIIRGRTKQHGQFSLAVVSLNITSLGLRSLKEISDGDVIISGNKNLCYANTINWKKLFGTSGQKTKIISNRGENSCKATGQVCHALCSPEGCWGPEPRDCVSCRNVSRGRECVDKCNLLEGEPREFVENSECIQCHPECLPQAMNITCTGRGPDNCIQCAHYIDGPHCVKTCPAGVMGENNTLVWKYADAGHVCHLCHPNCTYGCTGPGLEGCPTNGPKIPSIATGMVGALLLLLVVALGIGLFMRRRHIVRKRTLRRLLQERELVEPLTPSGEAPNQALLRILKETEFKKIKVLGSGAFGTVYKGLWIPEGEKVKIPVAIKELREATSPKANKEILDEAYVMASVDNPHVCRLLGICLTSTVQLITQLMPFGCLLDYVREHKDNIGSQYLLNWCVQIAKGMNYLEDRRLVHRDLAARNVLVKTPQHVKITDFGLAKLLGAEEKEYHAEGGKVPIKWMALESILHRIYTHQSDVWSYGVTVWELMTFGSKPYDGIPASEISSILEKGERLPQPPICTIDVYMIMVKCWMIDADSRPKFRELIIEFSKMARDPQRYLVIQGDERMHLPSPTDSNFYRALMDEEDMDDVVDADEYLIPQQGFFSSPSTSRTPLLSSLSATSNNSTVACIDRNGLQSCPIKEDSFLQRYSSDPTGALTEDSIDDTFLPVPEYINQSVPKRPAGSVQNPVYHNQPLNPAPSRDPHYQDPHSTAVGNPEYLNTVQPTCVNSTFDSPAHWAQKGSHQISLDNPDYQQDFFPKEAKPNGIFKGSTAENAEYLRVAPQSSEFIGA
# test.summary: Ba/F3 cell viability (Cell Titer Glo), EGFR exon 20 insertions
# Format: cell-based
# settings: read-out: IC50, Ave EGFR exon 20 insertions (N = 6 cell lines); Ba/F3, 72 hours, average over cell lines
measurement.type: log10 of GI50 (log10 of the value in nM)
Log scale reminder: GI50 in nM, then log10 taken.

Sample records with log10 of GI50:
INSERT INTO measurements (smiles_structure, measurement_type, data_value) VALUES
  ('C=CC(=O)Nc1cccc(Nc2nc(Nc3ccc(N4CCN(C(C)=O)CC4)cc3OC)ncc2C(F)(F)F)c1', 'log10 of GI50', 2.93),
  ('C=CC(=O)N1CCC[C@@H](n2nc(-c3ccc(Oc4ccccc4)cc3)c3c(N)ncnc32)C1', 'log10 of GI50', 2.16),
  ('Cc1cc(C(=O)Nc2nc3cccc(Cl)c3n2[C@@H]2CCCCN(C(=O)/C=C/CN(C)C)C2)ccn1', 'log10 of GI50', 2.30),
  ('COc1cc2ncnc(Nc3ccc(F)c(Cl)c3)c2cc1NC(=O)/C=C/CN1CCCCC1', 'log10 of GI50', 1.79);

Could you now consider this next molecule?
log10 of GI50 lookup needed for "C=CC(=O)N1CCC(Oc2cc3c(Nc4ccc(Cl)c(Cl)c4F)ncnc3cc2OC)CC1" , thanks.
0.00

Values were extracted from patent US20220143023A1.
